These measurements were taken from ChEMBL document CHEMBL3352060.

# measured target: Dual specificity calcium/calmodulin-dependent 3',5'-cyclic nucleotide phosphodiesterase 1C (Homo sapiens)
# assay name: Inhibition of PDE1C (unknown origin) at 10 uM
Answer each item with its documented inhibition.
One number for each entry, in %.

// worked examples, inhibition included
In [3]: df
Out[3]:
                                   compound  measured_value
0    Cc1cc2c3cnccc3cc(CCc3nc4ccccc4n3C)n2n1              10
1  Cc1cc2c3cnccc3cc(CCc3nc(-c4ccccc4)cn3C)n2n1              11
2  Cc1cc2c3cccnc3cc(CCc3nc(-c4ccccc4)cn3C)n2n1              15
3    Cc1cc2c3cccnc3cc(CCc3nc4ccccc4n3C)n2n1              28
4  CCOC(=O)c1cc2c3cccnc3cc(CCc3nc4ccccc4n3C)n2n1              27

[Q] # query: inhibition of entry `Cn1cc(-c2ccccc2)nc1CCc1cc2ncccc2c2cc(C(F)(F)F)nn12`
[A] -3

* * *

# measured target: UniProt:O60658
# Sequence (O60658 whole entry): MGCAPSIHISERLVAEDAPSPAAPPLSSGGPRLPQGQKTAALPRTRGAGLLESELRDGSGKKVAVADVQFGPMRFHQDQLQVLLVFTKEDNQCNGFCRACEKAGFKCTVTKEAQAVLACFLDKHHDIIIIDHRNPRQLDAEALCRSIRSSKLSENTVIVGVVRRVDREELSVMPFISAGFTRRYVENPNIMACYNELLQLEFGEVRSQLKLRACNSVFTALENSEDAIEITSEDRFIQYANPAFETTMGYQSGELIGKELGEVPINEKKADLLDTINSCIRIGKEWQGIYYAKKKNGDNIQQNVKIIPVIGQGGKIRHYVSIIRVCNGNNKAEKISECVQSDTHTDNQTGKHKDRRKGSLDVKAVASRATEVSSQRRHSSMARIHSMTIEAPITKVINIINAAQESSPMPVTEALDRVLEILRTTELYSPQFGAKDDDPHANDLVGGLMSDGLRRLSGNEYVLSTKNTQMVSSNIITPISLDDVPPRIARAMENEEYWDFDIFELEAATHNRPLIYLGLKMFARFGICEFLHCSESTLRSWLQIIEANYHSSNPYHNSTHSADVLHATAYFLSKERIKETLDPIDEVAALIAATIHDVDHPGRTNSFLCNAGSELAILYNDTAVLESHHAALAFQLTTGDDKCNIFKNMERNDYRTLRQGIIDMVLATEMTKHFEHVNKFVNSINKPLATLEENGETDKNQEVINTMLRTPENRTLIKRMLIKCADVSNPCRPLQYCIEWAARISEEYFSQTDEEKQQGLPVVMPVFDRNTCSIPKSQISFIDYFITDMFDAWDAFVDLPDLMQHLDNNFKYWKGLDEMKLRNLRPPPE
# assay name: Inhibition of PDE8A (unknown origin) at 10 uM
Decide using inhibition: a value greater than or equal to 30% is 1 (yes), a smaller one is 0 (no).

Solved entries (count: 4):
In [3]: df
Out[3]:
                                   compound  measured_target  qualitative_label
0    Cc1cc2c3cnccc3cc(CCc3nc4ccccc4n3C)n2n1   UniProt:O60658            1 (yes)
1  Cn1cc(-c2ccccc2)nc1CCc1cc2ncccc2c2cc(C(F)(F)F)nn12   UniProt:O60658            1 (yes)
2  CCOC(=O)c1cc2c3cccnc3cc(CCc3nc4ccccc4n3C)n2n1   UniProt:O60658             0 (no)
3  Cc1cc2c3cccnc3cc(CCc3nc(-c4ccccc4)cn3C)n2n1   UniProt:O60658             0 (no)

[Q] Decide: is the reported value of inhibition for `Cc1cc2c3ccncc3cc(CCc3nc(-c4ccccc4)cn3C)n2n1` equal to or greater than 30%?
[A] 1 (yes)

[Q] Subsequent entry: `Cc1cc2c3ccccc3cc(CCc3nc(-c4ccccc4)cn3C)n2n1`
[A] 0 (no)

[Q] Entry to check: `Cc1cc2c3ccccc3cc(CCc3nc4ccccc4n3C)n2n1`
[A] 1 (yes)

[Q] Please answer likewise for `CCOC(=O)c1cc2c3cccnc3cc(CCc3nc(-c4ccccc4)cn3C)n2n1`
[A] 1 (yes)

[Q] Same question for `COCc1cc2c3cccnc3cc(CCc3nc(-c4ccccc4)cn3C)n2n1` please.
[A] 0 (no)

[Q] Here is the next compound: `Cc1cc2c3cnccc3cc(CCc3nc(-c4ccccc4)cn3C)n2n1`
[A] 0 (no)

[Q] Another compound to look at: `Cc1cc2c3cccnc3cc(CCc3nc4ccccc4n3C)n2n1`
[A] 0 (no)

* * *

I'd appreciate it if you could supply inhibition values for the items below.
# measured target: 3',5'-cyclic-AMP phosphodiesterase 4D (Homo sapiens) (UniProt Q08499)
# Sequence (Q08499 whole entry): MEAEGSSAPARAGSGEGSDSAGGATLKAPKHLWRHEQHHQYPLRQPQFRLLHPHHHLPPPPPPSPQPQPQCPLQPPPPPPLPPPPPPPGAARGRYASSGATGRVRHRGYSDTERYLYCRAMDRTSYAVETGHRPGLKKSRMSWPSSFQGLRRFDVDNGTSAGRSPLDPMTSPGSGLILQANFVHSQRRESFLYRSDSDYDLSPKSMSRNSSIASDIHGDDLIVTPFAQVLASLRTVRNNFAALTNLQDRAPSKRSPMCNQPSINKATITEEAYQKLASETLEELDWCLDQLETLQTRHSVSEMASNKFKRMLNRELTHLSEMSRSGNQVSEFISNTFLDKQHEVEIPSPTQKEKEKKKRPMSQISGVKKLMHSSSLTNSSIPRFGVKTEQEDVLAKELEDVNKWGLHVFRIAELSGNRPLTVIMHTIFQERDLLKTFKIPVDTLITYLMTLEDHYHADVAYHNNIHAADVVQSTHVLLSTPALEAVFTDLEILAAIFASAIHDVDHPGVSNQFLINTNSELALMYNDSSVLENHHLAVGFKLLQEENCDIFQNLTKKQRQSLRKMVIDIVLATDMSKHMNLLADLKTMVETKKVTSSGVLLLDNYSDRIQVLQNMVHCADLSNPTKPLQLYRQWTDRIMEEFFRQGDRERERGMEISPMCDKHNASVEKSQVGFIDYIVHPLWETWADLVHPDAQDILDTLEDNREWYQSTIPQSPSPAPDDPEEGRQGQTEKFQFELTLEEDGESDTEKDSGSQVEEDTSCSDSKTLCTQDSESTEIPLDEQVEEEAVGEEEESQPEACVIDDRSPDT
# assay name: Inhibition of PDE4D (unknown origin) at 10 uM
One number for each entry, in %.

Look at each molecule and report its inhibition.
1. Cc1cc2c3cccnc3cc(CCc3nc4ccccc4n3C)n2n1
2. Cc1cc2c3ccccc3cc(CCc3nc(-c4ccccc4)cn3C)n2n1
3. CCOC(=O)c1cc2c3cccnc3cc(CCc3nc4ccccc4n3C)n2n1
4. COCc1cc2c3cccnc3cc(CCc3nc(-c4ccccc4)cn3C)n2n1
5. Cc1cc2c3ccncc3cc(CCc3nc(-c4ccccc4)cn3C)n2n1
6. CCOC(=O)c1cc2c3cccnc3cc(CCc3nc(-c4ccccc4)cn3C)n2n1

[A]
1. 23
2. 12
3. 24
4. 58
5. 68
6. 45

Look up inhibition for the entries below, preserving their order.
1. Cc1cc2c3cnccc3cc(CCc3nc4ccccc4n3C)n2n1
2. Cc1cc2c3cccnc3cc(CCc3nc(-c4ccccc4)cn3C)n2n1

[A]
1. 15
2. 38

Hello, I would appreciate it if you could give inhibition for each entry below.
1. Cn1cc(-c2ccccc2)nc1CCc1cc2ncccc2c2cc(C(F)(F)F)nn12
2. Cc1cc2c3ccccc3cc(CCc3nc4ccccc4n3C)n2n1
3. Cc1cc2c3cnccc3cc(CCc3nc(-c4ccccc4)cn3C)n2n1

[A]
1: 44; 2: 11; 3: 25
